Values were extracted from patent US9163256B2.

Target System: CfEcR-DEF mutant T52P (Choristoneura fumiferana, UniProt O77255, T335P)
Sequence (P28702 298-449): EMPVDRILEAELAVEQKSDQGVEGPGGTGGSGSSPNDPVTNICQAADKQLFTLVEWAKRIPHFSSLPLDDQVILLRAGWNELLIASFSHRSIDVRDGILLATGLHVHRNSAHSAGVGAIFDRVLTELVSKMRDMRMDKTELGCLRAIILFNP
Sequence (O77255 entry or part of it T335P): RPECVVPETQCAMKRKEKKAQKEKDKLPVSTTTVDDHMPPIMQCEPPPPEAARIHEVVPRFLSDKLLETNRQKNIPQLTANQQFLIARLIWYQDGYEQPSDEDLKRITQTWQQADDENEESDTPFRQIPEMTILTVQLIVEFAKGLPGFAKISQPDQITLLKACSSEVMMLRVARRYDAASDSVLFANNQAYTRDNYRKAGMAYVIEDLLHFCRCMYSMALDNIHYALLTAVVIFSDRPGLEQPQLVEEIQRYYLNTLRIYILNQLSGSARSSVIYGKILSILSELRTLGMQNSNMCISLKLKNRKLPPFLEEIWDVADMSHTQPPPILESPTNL
Measurement Protocol: cell-based
Reported Conditions: mutant T52P; read-out: EC50
Observable: EC50

Respond only with EC50 recorded for CC(C)CC[C@@H](O)[C@](C)(O)[C@H]1CC[C@@]2(O)C3=CC(=O)[C@@H]4C[C@@H](O)[C@@H](O)C[C@]4(C)[C@H]3CC[C@]12C
> 33 µM

Dear colleague, please send me the reported EC50 for CC(C)(O)CC[C@@H](O)[C@](C)(O)[C@H]1CC[C@@]2(O)C3=CC(=O)[C@@H]4C[C@@H](O)[C@@H](O)C[C@]4(C)[C@H]3CC[C@]12C [20E, 20-hydroxyecdysone] when you can.
> 33 µM

====

Target System: CfEcR-DEF mutant L132M (Choristoneura fumiferana, UniProt O77255, L415M)
Sequence (O77255 entry or part of it L415M, one chain of several): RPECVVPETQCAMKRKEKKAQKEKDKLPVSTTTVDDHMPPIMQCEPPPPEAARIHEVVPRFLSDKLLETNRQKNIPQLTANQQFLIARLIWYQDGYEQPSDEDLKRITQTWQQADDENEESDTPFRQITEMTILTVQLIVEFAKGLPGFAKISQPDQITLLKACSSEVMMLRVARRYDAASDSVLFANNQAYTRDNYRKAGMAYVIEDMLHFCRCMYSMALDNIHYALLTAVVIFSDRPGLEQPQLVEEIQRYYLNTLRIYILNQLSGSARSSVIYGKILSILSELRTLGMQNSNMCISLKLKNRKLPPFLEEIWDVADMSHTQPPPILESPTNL
Measurement Protocol: cell-based
Reported Conditions: mutant L132M
Observable: EC50

Specify reported EC50 for the compound shown: CC(C)(O)CC[C@@H](O)[C@](C)(O)[C@H]1CC[C@@]2(O)C3=CC(=O)[C@@H]4C[C@@H](O)[C@@H](O)C[C@]4(C)[C@H]3CC[C@]12C [20E, 20-hydroxyecdysone]
> 33 µM

====

Target System: CfEcR-DEF mutant W238Y (Choristoneura fumiferana, UniProt O77255, W521Y)
Measurement Protocol: cell-based
Reported Conditions: mutant W238Y; read-out: EC50
Observable: EC50

Quickly give me recorded EC50 for CC(C)CC[C@@H](O)[C@](C)(O)[C@H]1CC[C@@]2(O)C3=CC(=O)[C@@H]4C[C@@H](O)[C@@H](O)C[C@]4(C)[C@H]3CC[C@]12C
> 33 µM

Supply EC50 value. Item: CC(C)(O)CC[C@@H](O)[C@](C)(O)[C@H]1CC[C@@]2(O)C3=CC(=O)[C@@H]4C[C@@H](O)[C@@H](O)C[C@]4(C)[C@H]3CC[C@]12C [20E, 20-hydroxyecdysone]
> 33 µM

====

Could you please report measured EC50 for the items listed next?
Target System: CfEcR-DEF mutant L234R (Choristoneura fumiferana, UniProt O77255, L517R)
Sequence (O77255 entry or part of it L517R, one chain of several): as the sequence (O77255 entry or part of it L415M, one chain of several) above, with M209L, L311R counted along it
Measurement Protocol: GAL4-driven luciferase reporter assay in NIH3T3 cells
Number only, in µM; omit the unit.

Give reported EC50 value for CCc1c(OC)cccc1C(=O)NN(C(=O)c1cc(C)cc(C)c1)C(C)(C)C
17.1

Report measured EC50; entry is CCCCC(N(NC(=O)c1ccc(CC)cc1)C(=O)c1cc(C)cc(C)c1)C(C)(C)C (stereo not drawn)
20

====

Assign pEC50 to each entry below.
Target System: CfEcR-DEF mutant V96L (Choristoneura fumiferana, UniProt O77255, V379L)
Sequence (O77255 entry or part of it V379L, one chain of several): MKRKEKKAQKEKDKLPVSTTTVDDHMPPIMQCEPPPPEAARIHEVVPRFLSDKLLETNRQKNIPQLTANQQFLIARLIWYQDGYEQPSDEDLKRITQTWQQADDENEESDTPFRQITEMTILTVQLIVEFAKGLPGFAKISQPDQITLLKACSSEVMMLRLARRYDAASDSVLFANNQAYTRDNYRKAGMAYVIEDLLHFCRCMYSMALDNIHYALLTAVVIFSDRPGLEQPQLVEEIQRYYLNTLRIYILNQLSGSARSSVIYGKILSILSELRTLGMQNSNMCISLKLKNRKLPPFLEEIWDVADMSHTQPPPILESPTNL
Measurement Protocol: cell-based
Worth noting: pEC50 values are minus log10 of concentrations stated in mol/L.

State, for CfEcR-DEF mutant V96L (Choristoneura fumiferana, UniProt O77255, V379L), measured pEC50 of the compound listed here: CCc1cccc(C(=O)NN(C(=O)c2cc(C)cc(C)c2)C(C)(C)C)c1C [RG-101691]
5.77

Provide pEC50, tested on CfEcR-DEF mutant V96L (Choristoneura fumiferana, UniProt O77255, V379L), for Cc1cc(C)cc(C(=O)N(NC(=O)c2cccc(C(C)C)c2C)C(C)(C)C)c1 [RG-102362] .
5.57
